test: clinical; settings: human, in vivo, Cmax, mean
Property Measured: Cmax (ng/mL)

{"Structure String": "C=C/C=C/C[C@@H](C)[C@@H](O)[C@H]1C(=O)N[C@@H](CC)C(=O)N(C)CC(=O)N(C)[C@@H](CC(C)C)C(=O)N[C@@H](C(C)C)C(=O)N(C)[C@@H](CC(C)C)C(=O)N[C@@H](C)C(=O)N[C@H](C)C(=O)N(C)[C@@H](CC(C)C)C(=O)N(C)[C@@H](CC(C)C)C(=O)N(C)[C@@H](C(C)C)C(=O)N1C", "Property Measured": "Cmax", "Value": 188}

Hello, the source for this data is patent US20060014677A1, in case you need it.
